Source listed as ChEMBL document CHEMBL1138902.

# Tested on: Beta-TC6
# procedure text: Inhibition of glucose-stimulated insulin release in beta-TC6 cells at 10 uM
# Assay type: functional, Mus musculus
Attribute: Efficacy
metric: Efficacy (%)

                                    molecule  system_name    metric  recorded_measurement
 0  O=S1(=O)N=C(NC2(c3cccc(Cl)c3)CCC2)Nc2cc(Cl)sc21     Beta-TC6  Efficacy                    40
 1           CC1(NC2=NS(=O)(=O)c3sccc3N2)CC1     Beta-TC6  Efficacy                    19
 2  O=S1(=O)N=C(NC2(C(F)(F)F)CC2)Nc2cc(Cl)sc21     Beta-TC6  Efficacy                    76
 3  C[C@@H](NC1=NS(=O)(=O)c2sc(Cl)cc2N1)c1ccccc1     Beta-TC6  Efficacy                    68
 4    CN1C(NC2(C)CC2)=NS(=O)(=O)c2sc(Cl)cc21     Beta-TC6  Efficacy                    23
 5       CC1(NC2=NS(=O)(=O)c3sc(Br)cc3N2)CC1     Beta-TC6  Efficacy                    81
 6       CC1(NC2=NS(=O)(=O)c3scc(Br)c3N2)CC1     Beta-TC6  Efficacy                     5
 7       CC1(NC2=NS(=O)(=O)c3scc(Cl)c3N2)CC1     Beta-TC6  Efficacy                     2
 8      O=S1(=O)N=C(NCC(F)(F)F)Nc2cc(Cl)sc21     Beta-TC6  Efficacy                    36
 9  CC1=Nc2ccc(Cl)cc2S(=O)(=O)N1 [DIAZOXIDE]     Beta-TC6  Efficacy                    25
10  O=S1(=O)NC(NC2(c3ccccc3)CC2)=Nc2cc(Cl)sc21     Beta-TC6  Efficacy                    66
11  CC(C)(NC1=NS(=O)(=O)c2sc(Cl)cc2N1)c1ccccc1     Beta-TC6  Efficacy                    76
12          CC(C)NC1=NS(=O)(=O)c2cc(Cl)sc2N1     Beta-TC6  Efficacy                    16
